test system: Mus musculus; assay: Inhibition of arachidonic acid (AA)-induced mouse ear edema after pretreatment with compound (1 h before AA) at a drug concentration of 30 umol/kg po.; format: functional
Outcome: fulfilled for inhibition in vivo at 30 µmol/kg of at least 30%; not fulfilled for anything lower.

Observe how each entry below is paired with its result.
QUERY: // inclusive: inhibition in vivo at 30 µmol/kg at least 30%? input: COc1ccc([C@]2(C#N)CC[C@@H](C(=O)O)CC2)cc1OC1CCCC1
RESULT: fulfilled

QUERY: Check if inhibition in vivo at 30 µmol/kg >= 30% (inclusive). Item: COc1ccc(C2=NN(c3ccc(C4=NNC(=O)CC4C)cc3)C(=O)C3CC=CCC23)cc1OC1CCCC1 (centres undefined)
RESULT: not fulfilled

New cases:
QUERY: Has COc1ccc(C2=NN(c3ccc(C4=NNC(=O)CC4C)cc3)C(=O)C3CC=CCC23)cc1Cl (centres undefined) a recorded inhibition in vivo at 30 µmol/kg greater than or equal to 30%?
RESULT: fulfilled

QUERY: Decide: is the reported value of inhibition in vivo at 30 µmol/kg for COc1ccc(C2=NN(CCCCC(=O)Nc3ccc(C4=NNC(=O)CC4C)cc3)C(=O)C3CC=CCC23)cc1OC (centres undefined) equal to or greater than 30%?
RESULT: not fulfilled

QUERY: Given COc1ccc(C2=NN(CC(=O)Nc3ccc(-c4ccc(O)nn4)cc3)C(=O)C3CC=CCC23)cc1OC (centres undefined) , state whether its inhibition in vivo at 30 µmol/kg is at least 30%.
RESULT: fulfilled

QUERY: Answer whether inhibition in vivo at 30 µmol/kg of COc1ccc(C2=NN(CCCCOc3ccc(C4=NNC(=O)CC4C)cc3)C(=O)C3CC=CCC23)cc1Cl (centres undefined) is greater than or equal to 30%.
RESULT: fulfilled

QUERY: Exam item: decide whether the reported inhibition in vivo at 30 µmol/kg for CCOc1ccc(C2=NN(c3ccc(C4=NNC(=O)CC4C)cc3)C(=O)C3CC=CCC23)cc1OCC (centres undefined) is at least 30%.
RESULT: fulfilled

QUERY: # bool: inhibition in vivo at 30 µmol/kg of COc1ccc(C2=NN(c3ccc(C4=NNC(=O)CC4C)cc3)C(=O)C3CC=CCC23)cc1OC (centres undefined) >= 30%
RESULT: fulfilled

QUERY: Item COc1ccc(C2=NN(CCCCOc3ccc(C4=NNC(=O)CC4C)cc3)C(=O)C3CC=CCC23)cc1OC (centres undefined) with inhibition in vivo at 30 µmol/kg of 30% or above?
RESULT: fulfilled

QUERY: Dear colleague, could you confirm whether COc1ccc(C2=NN(c3ccc(-c4ccc(O)nn4)cc3)C(=O)C3CC=CCC23)cc1OC (centres undefined) has inhibition in vivo at 30 µmol/kg at or above 30%?
RESULT: not fulfilled

QUERY: Given COc1cc(-c2ccc(=O)[nH]n2)ccc1OC(F)F , state whether its inhibition in vivo at 30 µmol/kg is at least 30%.
RESULT: not fulfilled

QUERY: Reported inhibition in vivo at 30 µmol/kg at or above 30%? COc1ccc(C2=NN(CC(=O)Nc3ccc(C4=NNC(=O)CC4C)cc3)C(=O)C3CC=CCC23)cc1OC (centres undefined)
RESULT: not fulfilled

QUERY: Confirm if inhibition in vivo at 30 µmol/kg reported for the molecule CCOc1ccc(C2=NN(CCCCOc3ccc(C4=NNC(=O)CC4C)cc3)C(=O)C3CC=CCC23)cc1OCC (centres undefined) is 30% or above.
RESULT: fulfilled

QUERY: Test whether the molecule COc1ccc(C2=NN(CCCCC(=O)Nc3ccc(-c4ccc(O)nn4)cc3)C(=O)C3CC=CCC23)cc1OC (centres undefined) records inhibition in vivo at 30 µmol/kg of 30% or higher.
RESULT: not fulfilled
